- system.name: Skeletal Myofibril ATPase (Rabbit Psoas myofibrils)
- assay.overview: Skeletal Myofibril ATPase Assay
- assay.context: PK/LDH-coupled NADH absorbance at 340 nm
pIC50: −log10 of the molar value.
observable: pIC50

Use these answered entries as a reference point.
Cc1cc(Cn2nc(-c3nc(-c4cccc(Cl)c4)no3)ccc2=O)on1 ≥ 5.00
O=c1ccc(-c2nc(-c3cnccn3)no2)cn1Cc1ccccc1F < 3.92
O=c1ccc(-c2cccs2)nn1C/C=C/c1ccccc1 < 4.00
CCNC(=O)Cn1nc(-c2nc(-c3cccc(OC(F)(F)F)c3)no2)ccc1=O ≥ 5.00
O=C(Cn1nc(-c2cccs2)ccc1=O)Nc1ccc2c(c1)OCCO2 < 4.00

Here is the next item to consider.
Lookup: Tell me the measured pIC50 of O=c1ccc(-c2nc(-c3ccccc3Cl)no2)cn1Cc1cccnc1 , please.
Found: 4.00 to 5.00
